- testTarget: Glutamate receptor 2 (Homo sapiens, UniProt P42262)
- Sequence (P42262 whole entry, canonical isoform): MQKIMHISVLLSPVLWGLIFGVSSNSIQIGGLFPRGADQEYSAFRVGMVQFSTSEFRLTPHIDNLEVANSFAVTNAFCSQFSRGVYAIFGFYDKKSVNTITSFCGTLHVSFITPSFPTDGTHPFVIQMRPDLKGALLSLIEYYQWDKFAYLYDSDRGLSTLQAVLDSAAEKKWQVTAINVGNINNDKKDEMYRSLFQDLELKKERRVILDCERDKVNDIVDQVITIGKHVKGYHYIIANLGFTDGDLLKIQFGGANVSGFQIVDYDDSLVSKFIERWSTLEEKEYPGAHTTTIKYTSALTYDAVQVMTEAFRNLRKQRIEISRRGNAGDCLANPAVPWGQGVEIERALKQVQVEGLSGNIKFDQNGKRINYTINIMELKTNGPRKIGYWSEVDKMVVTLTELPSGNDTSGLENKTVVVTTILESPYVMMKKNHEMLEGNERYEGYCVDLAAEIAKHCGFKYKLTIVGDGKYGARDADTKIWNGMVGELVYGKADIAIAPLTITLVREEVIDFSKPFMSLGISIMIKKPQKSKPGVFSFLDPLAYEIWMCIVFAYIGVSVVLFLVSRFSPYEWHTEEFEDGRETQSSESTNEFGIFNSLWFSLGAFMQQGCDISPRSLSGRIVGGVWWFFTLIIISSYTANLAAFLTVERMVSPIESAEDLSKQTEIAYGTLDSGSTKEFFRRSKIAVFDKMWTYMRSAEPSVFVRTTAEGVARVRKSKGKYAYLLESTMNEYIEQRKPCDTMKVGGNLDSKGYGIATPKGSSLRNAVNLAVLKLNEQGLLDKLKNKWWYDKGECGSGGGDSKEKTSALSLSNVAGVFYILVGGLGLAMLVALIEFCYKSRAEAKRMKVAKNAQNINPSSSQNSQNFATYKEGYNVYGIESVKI
- methodSummary: Positive allosteric modulation of GluA2Q flop isoform (unknown origin) expressed in HEK293 cells assessed as increase in L-glutamate induced calcium flux after 1 hr by fluo-4AM dye-based fluorescence assay
parameter: pEC50
The meaning of pEC50 here: minus log10 of the concentration in molar units.

# input Give the measured pEC50 of `O=S1(=O)NCN(C2CC2)c2cc(CCc3ccc4c(c3)N(C3CC3)CNS4(=O)=O)ccc21` .
# output 8.89
